# System: RD cells
# measurement notes: Cytotoxicity of medicines by CCK-8
# Assay type: cell-based, human
# measurement conditions: 48 h
A collection of compounds and their measured MNTC
Answer in µg/mL, number only, no unit symbol.

O=C(O)c1cc(O)c(O)c(O)c1 [Gallic acid, gallic acid]    6.25
O=C(O)/C=C/c1ccc(O)c(O)c1 [Caffeic acid]    50.00
O=C(/C=C/c1ccc(O)c(O)c1)O[C@H](Cc1ccc(O)c(O)c1)C(=O)O [Rosmarinic acid, rosmarinic acid]    50.00
O=C(/C=C/c1ccc(O)c(O)c1)O[C@H]1[C@H](O)C[C@](O)(C(=O)O)C[C@H]1O [Cryptochlorogenic acid, cryptochlorogenic acid]    100.00

What does the record list as MNTC for C[C@@H]1O[C@@H](OC[C@H]2O[C@@H](Oc3c(-c4ccc(O)c(O)c4)oc4cc(O)cc(O)c4c3=O)[C@H](O)[C@@H](O)[C@@H]2O)[C@H](O)[C@H](O)[C@H]1O [Rutin, rutin] ?
200.00

Item O=c1c(O[C@@H]2O[C@H](CO)[C@@H](O)[C@H](O)[C@H]2O)c(-c2ccc(O)cc2)oc2cc(O)cc(O)c12 [Astragalin] has what recorded MNTC?
200.00

What value of measured MNTC is listed for O=c1c(O[C@@H]2O[C@H](CO)[C@H](O)[C@H](O)[C@H]2O)c(-c2ccc(O)c(O)c2)oc2cc(O)cc(O)c12 [Hyperoside] ?
200.00
